IC50 values by entry
# measured.on: AuroraB (Homo sapiens)
# Construct: 20 μL of AuroraB FL H is for a final volume of 41 μL; His
# Sequence (Q96GD4 whole entry): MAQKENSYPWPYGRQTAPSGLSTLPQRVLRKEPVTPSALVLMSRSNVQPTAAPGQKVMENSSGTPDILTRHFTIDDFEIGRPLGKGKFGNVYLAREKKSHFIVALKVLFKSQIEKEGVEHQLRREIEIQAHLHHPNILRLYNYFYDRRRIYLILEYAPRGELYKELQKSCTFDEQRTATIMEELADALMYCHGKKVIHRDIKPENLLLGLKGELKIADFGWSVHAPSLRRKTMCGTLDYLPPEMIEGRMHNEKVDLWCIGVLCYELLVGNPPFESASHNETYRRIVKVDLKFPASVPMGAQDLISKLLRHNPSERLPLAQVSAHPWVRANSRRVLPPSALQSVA
# protocol: AuroraB Homogeneous Time Resolved Fluorescent (HTRF) kinase assay
# Assay type: biochemical
# test.settings: average; read-out: AurB_IC50_IP (uM Avg)

| molecule | IC50 |
| --- | --- |
| COc1ccc2nccc(Oc3ccc(Nc4nnc(-c5cc(C)cs5)c5ccccc45)cc3)c2n1 [compound 552] | 0.036 µM |
| COc1ccc(F)cc1-c1nnc(Nc2ccc(Oc3ccnc4cc(C(N)=O)ccc34)cc2)c2ccccc12 [Example 47] | 0.138 µM |
| Cc1cc2nccc(Sc3ccc(Nc4nnc(-c5ccc(C)c(N)c5)c5ccccc45)cc3)c2o1 [compound 492] | 0.046 µM |
| COc1cnc2c(Oc3ccc(Nc4nnc(N5CCN(C)CC5)c5ccccc45)cc3)ccnc2c1 [compound 85] | 0.004 µM |

* * *

IC50 values by entry
# measured.on: AuroraA-TPX2 (Homo sapiens)
# Construct: 20 μL of AuroraA-TPX2 KD GST for a final volume of about 41 μL; GST
# protocol: AuroraA-TPX2 Homogeneous Time Resolved Fluorescent (HTRF) kinase assay
# Type: biochemical
# test.settings: average; read-out: AurA_IC50_IP (uM Avg)

| smi | endpoint.unit | IC50 |
| --- | --- | --- |
| COc1cc2nccc(Sc3ccc(Nc4nnc(-c5ccc(Cl)cc5)c5ccccc45)cc3)c2cn1 | µM | 0.025 |
| COc1cnc2c(Oc3ccc(Nc4nnc(N5CC[C@H]6CCCC[C@@H]6C5)c5ccccc45)cc3)ccnc2c1 | µM | 0.124 |
| COc1cnc2c(Sc3ccc(Nc4nnc(N5CCN6CC(F)(F)C[C@H]6C5)c5ccccc45)cc3)ccnc2c1 | µM | 0.021 |
| COc1ccc2nccc(Sc3ccc(Nc4nnc(-c5ccccc5)c5ccccc45)cc3)c2c1 | µM | 0.144 |

* * *

# measured.on: AuroraA-TPX2 (Homo sapiens)
# Construct: 20 μL of AuroraA-TPX2 KD GST for a final volume of about 41 μL; GST
# protocol: AuroraA-TPX2 Homogeneous Time Resolved Fluorescent (HTRF) kinase assay
# Assay type: biochemical
# test.settings: average; read-out: AurA_IC50_IP (uM Avg)

| compound | IC50 |
| --- | --- |
| N#Cc1cnc2c(Oc3ccc(Nc4nnc(-c5ccc(Cl)cc5)c5ccccc45)cc3)ccnc2c1 | 0.113 µM |
| COc1cnc2c(Oc3ccc(Nc4nnc(-c5csc6ccccc56)c5ccccc45)cc3)ccnc2c1 | 0.01 µM |
| CCc1cc(-c2ccc(C)s2)nnc1Nc1ccc(Oc2ccnc3cc(OC)cnc23)cc1 | 0.06 µM |
| CCc1cc(-c2ccc(Cl)cc2)nnc1Nc1ccc(Oc2ccnc3cc(OC)cnc23)cc1 | 0.012 µM |
| COc1cnc2c(Oc3ccc(Nc4nnc(-c5cccc(Cl)c5)c5ccccc45)cc3)ccnc2c1 | 0.051 µM |
| c1ccc(-c2nnc(Nc3ccc(Oc4ncnc5nc[nH]c45)cc3)c3ccccc23)cc1 | 0.868 µM |
| Cc1csc(-c2nnc(Nc3ccc(Sc4ccnc5cc(C#N)sc45)cc3)c3ccccc23)c1 | 0.21 µM |
| COc1cnc2c([S+]([O-])c3ccc(Nc4nnc(-c5ccc(F)cc5)c5ccccc45)cc3)ccnc2c1 (stereo not shown) | 0.532 µM |
| COc1cnc2c(Sc3ccc(Nc4nnc(N5CCN(C)CC5)c5ccccc45)cc3)ccnc2c1 | 0.02 µM |
| COc1ccc2c(Oc3ccc(Nc4nnc(-c5ccccc5)c5ccccc45)cc3)ccnc2c1 | 0.054 µM |
| COc1cc(OC)c2c(Oc3ccc(Nc4nnc(-c5ccc(Cl)cc5)c5ccccc45)cc3)ccnc2c1 | 0.038 µM |
| COc1cc2nccc(Oc3ccc(Nc4nnc(-c5cccc(COC(C)=O)n5)c5ccccc45)cc3)c2cc1OC | 0.014 µM |
| COc1cnc2c(Sc3ccc(Nc4nnc(N5CCN6CCC[C@H]6C5)c5ccccc45)cc3)ccnc2c1 | 0.023 µM |
| COc1cc2nccc(Oc3ccc(Nc4nnc(-c5ccc(C)c(C)c5)c5ccccc45)cc3)c2cc1OC | 0.014 µM |
| Cc1cc2nccc(Sc3ccc(Nc4nnc(-c5ccc(C)c(N)c5)c5ccccc45)cc3)c2o1 | 0.142 µM |
| COc1cccc(-c2nnc(Nc3ccc(Oc4ccnc5cc(C#N)ccc45)cc3)c3ccccc23)n1 | 0.028 µM |
| c1ccc(-c2nnc(Nc3ccc(Sc4ccnc5cccnc45)cc3)c3ccccc23)cc1 [compound 309] | 0.054 µM |
| Clc1ccc(-c2nnc(Nc3ccc(Sc4ccnc5ccccc45)cc3)c3ccccc23)nc1 | 0.016 µM |
| COc1cc2nccc(Oc3ccc(Nc4nnc(-c5cccs5)c5ccccc45)cc3F)c2cc1OC | 0.034 µM |
| c1ccc(-c2nnc(Nc3ccc(Oc4ccnc5cc(-c6ccsc6)ccc45)cc3)c3ccccc23)cc1 | 0.021 µM |
| COc1cnc2c(Oc3ccc(Nc4nnc(N5CCN(C)CC5)c5ccccc45)cc3)ccnc2c1 | 0.066 µM |
| COc1ccc2c(Oc3ccc(Nc4nnc(-c5ccc(Cl)cc5)c5ccccc45)cc3)ccnc2c1 | 0.04 µM |
| Cc1ccc(-c2ccc3c(Oc4ccc(Nc5nnc(-c6ccccc6)c6ccccc56)cc4)ccnc3c2)o1 | 0.057 µM |
| COc1cnc2c(Oc3ccc(Nc4nnc(-c5cc6ccccc6o5)c5ccccc45)cc3)ccnc2c1 | 0.007 µM |
| CCc1cc(-c2ccc(C)cc2)nnc1Nc1ccc(Sc2ccnc3cccnc23)cc1 | 0.049 µM |
| Cc1csc(-c2nnc(Nc3ccc(Oc4ccnc5cccnc45)cc3)c3ccccc23)c1 | 0.027 µM |
| COc1cnc2c(Oc3ccc(Nc4nnc(-c5ccc6c(c5)OCO6)c5ccccc45)cc3)ccnc2c1 [compound 306] | 0.011 µM |
| COc1cnc2c(Oc3ccc(Nc4nnc(-c5ccc(S(C)(=O)=O)cc5)c5ccccc45)cc3)ccnc2c1 | 0.036 µM |
| COc1cnc2c(Sc3ccc(Nc4nnc(-c5ccc(Cl)cn5)c5ccccc45)cc3)ccnc2c1 [compound 304] | 0.013 µM |
| COc1cnc2c(Oc3ccc(Nc4nnc(-c5ccc(C(C)(C)C)cc5)c5ccccc45)cc3)ccnc2c1 | 0.023 µM |
| COc1cnc2c(Oc3ccc(Nc4nnc(-c5cc(F)ccc5OC)c5ccccc45)cc3)ccnc2c1 | 0.414 µM |

* * *

# measured.on: AuroraA-TPX2 (Homo sapiens)
# Construct: 20 μL of AuroraA-TPX2 KD GST for a final volume of about 41 μL; GST
# protocol: AuroraA-TPX2 Homogeneous Time Resolved Fluorescent (HTRF) kinase assay
# Format: biochemical
# test.settings: average; read-out: AurA_IC50_IP (uM Avg)
IC50 values by entry
observation.type: IC50 (µM)

| molecule | endpoint.unit | recorded.number |
| --- | --- | --- |
| COc1cnc2c(Oc3ccc(Nc4nnc(-c5cn[nH]c5)c5ccccc45)cc3)ccnc2c1 | µM | 0.478 |
| COc1ccc(F)cc1-c1nnc(Nc2ccc(Oc3ccnc4cc(C(N)=O)ccc34)cc2)c2ccccc12 | µM | 5 |
| COc1cnnc(Nc2ccc(Oc3ccnc4cc(OC)cnc34)cc2)c1 | µM | 1 |
| CCc1cc(-c2ccccc2)nnc1Nc1ccc(Oc2ncnc3cc(OC)c(OC)cc23)cc1 | µM | 0.062 |
| COc1ccc2c(C(=O)c3ccc(Nc4nnc(-c5ccc(Cl)cc5)c5ccccc45)cc3)ccnc2c1 | µM | 0.3 |
| COc1cnc2c(Oc3ccc(Nc4nnc(-c5ccccc5Cl)c5ccccc45)cc3)ccnc2c1 | µM | 0.723 |
| CCCc1cc(-c2ccccc2)nnc1Nc1ccc(Oc2ccnc3cc(OC)cnc23)cc1 | µM | 0.047 |
| COc1ccc2nccc(Sc3ccc(Nc4nnc(-c5ccc(Cl)cc5)c5ccccc45)cc3)c2c1 [compound 297] | µM | 0.036 |

* * *

# measured.on: AuroraA-TPX2 (Homo sapiens)
# Construct: 20 μL of AuroraA-TPX2 KD GST for a final volume of about 41 μL; GST
# Sequence (O14965 133-383 limits assumed): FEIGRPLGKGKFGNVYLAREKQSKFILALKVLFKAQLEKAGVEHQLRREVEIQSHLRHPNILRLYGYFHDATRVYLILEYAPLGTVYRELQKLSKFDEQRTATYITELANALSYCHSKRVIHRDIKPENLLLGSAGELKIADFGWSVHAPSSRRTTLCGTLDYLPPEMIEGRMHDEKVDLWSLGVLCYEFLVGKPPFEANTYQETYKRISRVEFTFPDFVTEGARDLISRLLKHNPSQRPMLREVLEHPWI
# Sequence (Q9ULW0 1-43 partner limits assumed): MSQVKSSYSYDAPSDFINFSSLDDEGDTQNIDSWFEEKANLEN
# protocol: AuroraA-TPX2 Homogeneous Time Resolved Fluorescent (HTRF) kinase assay
# Format: biochemical
# test.settings: average; read-out: AurA_IC50_IP (uM Avg)
observation.type: IC50 (µM)

| smi | measured.on | endpoint.unit | recorded.number |
| --- | --- | --- | --- |
| COc1cc2ncnc(Sc3ccc(Nc4nnc(-c5ccc(Cl)cc5)c5ccccc45)cc3)c2cc1OC | AuroraA-TPX2 (Homo sapiens) | µM | 0.028 |
| COc1ccc2nccc(Oc3ccc(Nc4nnc(-c5ccc6c(c5)OCO6)c5ccccc45)cc3)c2n1 | AuroraA-TPX2 (Homo sapiens) | µM | 0.096 |
| N#Cc1cc2nccc(Sc3ccc(Nc4nnc(-c5ccc(Cl)cc5)c5ccccc45)cc3)c2o1 | AuroraA-TPX2 (Homo sapiens) | µM | 0.09 |
| COc1cnc2c(Sc3ccc(Nc4nnc(N5CCC(Cl)CC5)c5ccccc45)cc3)ccnc2c1 | AuroraA-TPX2 (Homo sapiens) | µM | 0.036 |
| COc1cnc2c(Oc3ccc(Nc4nnc(-c5ccc(F)cc5)c5ccccc45)cc3)ccnc2c1 | AuroraA-TPX2 (Homo sapiens) | µM | 0.047 |
| c1ccc(-c2nnc(Nc3ccc(Sc4ccnc5ccncc45)cc3)c3ccccc23)cc1 | AuroraA-TPX2 (Homo sapiens) | µM | 0.171 |
| CCc1cc(-c2ccccc2)nnc1Nc1ccc(Sc2ccnc3cc(OC)cnc23)cc1 | AuroraA-TPX2 (Homo sapiens) | µM | 0.066 |
| COc1cnc2c(Oc3ccc(Nc4nnc(-c5ccc6c(c5)OCCO6)c5ccccc45)cc3)ccnc2c1 | AuroraA-TPX2 (Homo sapiens) | µM | 0.023 |
